# Tested on: TEAD-dependent transcription (12XGTIIC TEAD response element luciferase reporter) in MSTO-211H cells
# Test Method Notes: TEAD-dependent transcription cell-based luciferase reporter assay in MSTO-211H+12XGTIIC cells
# Condition Context: Homo sapiens; MSTO-211H+12XGTIIC reporter cells, 24 hours compound incubation, luminescence normalized to cell viability signal, geometric mean; read-out: MSTO-211H GMean IC50 (uM) Cell Assay Reporter Cell Variant: TEAD
Assay Readout: IC50

O=C(c1cccc2cc[nH]c12)N1CCc2c(cccc2Nc2ccc(C(F)(F)F)nc2)C1 :: 0.001 to 10 µM
O=C(c1cccc2[nH]ccc12)N1CCc2c(cccc2Nc2ccc(C(F)(F)F)cc2)C1 :: 0.001 to 10 µM
CN(c1ccc(C(F)(F)F)cc1)c1cccc2c1CCN(C(=O)Cc1cn[nH]c1)C2 :: 0.001 to 10 µM
C=CC(=O)Nc1cccc(C(=O)N2CCc3c(cccc3Nc3ccc(C(F)(F)F)cc3)C2)c1 :: 0.001 to 10 µM
C=CC(=O)Nc1ccc(C(=O)N2CCc3c(cccc3N(C)c3ccc(C(F)(F)F)cc3)C2)cc1 :: 0.001 to 10 µM

Tell us which IC50 value is on record for O=C(Nc1ccccn1)N1CCC(C(=O)N2CCc3c(cccc3Nc3ccc(C(F)(F)F)cc3F)C2)C1 (stereo not shown)
0.001 to 10 µM

Tell us which IC50 value is on record for `O=C(CCS(=O)(=O)C(F)(F)F)N1CCc2c(cccc2Nc2ccc(C(F)(F)F)nc2)C1`
0.001 to 10 µM
